biological target: EZH2 (Homo sapiens); experiment: AlphaLISA enzyme activity inhibition, EZH2; type: biochemical; settings: 5nM test substance
measurement_kind: inhibition at 0.005 µM (%)
Give your result in % as a bare value.

CCN1CCN(c2ncc(-c3cc(C(=O)NCc4c(SC)cc(C)[nH]c4=O)c(C)c4c3OC(C)(C3CCN(CC(F)(F)F)CC3)O4)cn2)CC1 (single isomer, unassigned) [Compound 76]
99.5

Give inhibition at 0.005 µM (EZH2 (Homo sapiens)) of the following compound: CSc1cc(C)[nH]c(=O)c1CNC(=O)c1cc(-c2cnc(N3CCC(F)(F)CC3)nc2)c2c(c1C)OC(C)([C@H]1CC[C@H](N(C)C)CC1)O2 (relative stereo) [Compound 8]
96.1

Give inhibition at 0.005 µM (EZH2 (Homo sapiens)) of the following compound: CSc1cc(C)[nH]c(=O)c1CNC(=O)c1cc(-c2ccc(N3C[C@@H](C)O[C@@H](C)C3)nc2)c2c(c1C)OC(C)([C@H]1CC[C@H](N(C)C)CC1)O2 (stereo partly shown) [Compound 1]
98.7

Give inhibition at 0.005 µM (EZH2 (Homo sapiens)) of the following compound: CSc1cc(C)[nH]c(=O)c1CNC(=O)c1cc(-c2cnc(N3C[C@@H](C)O[C@@H](C)C3)nc2)c2c(c1C)OC(C)(C1CCN(CC(F)(F)F)CC1)O2 (stereo partly shown) [Compound 38]
57.4

Give inhibition at 0.005 µM (EZH2 (Homo sapiens)) of the following compound: CCCOCCN(C)[C@H]1CC[C@H](C2(C)Oc3c(-c4ccc(N5C[C@@H](C)O[C@@H](C)C5)nc4)cc(C(=O)NCc4c(SC)cc(C)[nH]c4=O)c(C)c3O2)CC1 (stereo partly shown) [Compound 30]
83.1

Give inhibition at 0.005 µM (EZH2 (Homo sapiens)) of the following compound: CSc1cc(C)[nH]c(=O)c1CNC(=O)c1cc(-c2ccc(N3C[C@@H](C)O[C@@H](C)C3)nc2)c2c(c1C)OC(C)(C1CCN(CC(F)F)CC1)O2 (stereo partly shown) [Compound 46]
59.2

Give inhibition at 0.005 µM (EZH2 (Homo sapiens)) of the following compound: CSc1cc(C)[nH]c(=O)c1CNC(=O)c1cc(-c2ccc(N3C[C@@H](C)O[C@@H](C)C3)nc2)c2c(c1C)OC(C)([C@H]1CC[C@H](N3CC(O)C3)CC1)O2 (stereo partly shown) [Compound 101]
98.7

Give inhibition at 0.005 µM (EZH2 (Homo sapiens)) of the following compound: CSc1cc(C)[nH]c(=O)c1CNC(=O)c1cc(-c2cnc(N3CCCCC3)nc2)c2c(c1C)OC(C)([C@H]1CC[C@H](N(C)CC(F)(F)F)CC1)O2 (relative stereo) [Compound 21]
11.3

Give inhibition at 0.005 µM (EZH2 (Homo sapiens)) of the following compound: CSc1cc(C)[nH]c(=O)c1CNC(=O)c1cc(-c2ccc(N3CCOCC3)nc2)c2c(c1C)OC(C)(C1CCN(CC(F)(F)F)CC1)O2 (single isomer, unassigned) [Compound 62]
93.6

Give inhibition at 0.005 µM (EZH2 (Homo sapiens)) of the following compound: COCCN(C)[C@H]1CC[C@H](C2(C)Oc3c(-c4cnc(N(C)C)nc4)cc(C(=O)NCc4c(SC)cc(C)[nH]c4=O)c(C)c3O2)CC1 (relative stereo) [Compound 26]
99.6

* * *

Listing of recorded inhibition at 0.005 µM by entry.
biological target: EZH2 (Homo sapiens, UniProt Q15910); test: AlphaLISA enzyme activity inhibition, EZH2; type: biochemical; settings: 5nM test substance
Sequence (Q15910 whole entry, species assumed): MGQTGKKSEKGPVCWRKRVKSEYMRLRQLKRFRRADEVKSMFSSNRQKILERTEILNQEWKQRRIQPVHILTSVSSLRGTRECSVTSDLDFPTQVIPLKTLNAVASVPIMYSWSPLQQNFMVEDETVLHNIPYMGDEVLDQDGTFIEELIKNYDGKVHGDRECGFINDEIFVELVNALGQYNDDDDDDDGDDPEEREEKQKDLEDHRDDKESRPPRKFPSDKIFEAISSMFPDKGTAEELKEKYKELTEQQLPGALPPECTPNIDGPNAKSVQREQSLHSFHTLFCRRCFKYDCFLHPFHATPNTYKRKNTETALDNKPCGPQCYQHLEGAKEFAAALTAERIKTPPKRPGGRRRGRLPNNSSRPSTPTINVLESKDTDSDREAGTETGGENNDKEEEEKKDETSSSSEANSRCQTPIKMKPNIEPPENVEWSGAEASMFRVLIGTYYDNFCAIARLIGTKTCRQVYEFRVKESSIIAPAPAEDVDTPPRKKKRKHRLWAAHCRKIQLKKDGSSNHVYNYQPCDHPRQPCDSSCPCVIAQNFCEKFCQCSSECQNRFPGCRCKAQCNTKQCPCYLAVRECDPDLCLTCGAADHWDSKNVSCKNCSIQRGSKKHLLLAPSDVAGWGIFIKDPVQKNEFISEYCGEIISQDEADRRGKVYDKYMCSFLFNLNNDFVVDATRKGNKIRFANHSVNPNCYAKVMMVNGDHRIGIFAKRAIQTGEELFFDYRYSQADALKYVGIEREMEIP
Sequence (O75530 whole entry partner, species assumed): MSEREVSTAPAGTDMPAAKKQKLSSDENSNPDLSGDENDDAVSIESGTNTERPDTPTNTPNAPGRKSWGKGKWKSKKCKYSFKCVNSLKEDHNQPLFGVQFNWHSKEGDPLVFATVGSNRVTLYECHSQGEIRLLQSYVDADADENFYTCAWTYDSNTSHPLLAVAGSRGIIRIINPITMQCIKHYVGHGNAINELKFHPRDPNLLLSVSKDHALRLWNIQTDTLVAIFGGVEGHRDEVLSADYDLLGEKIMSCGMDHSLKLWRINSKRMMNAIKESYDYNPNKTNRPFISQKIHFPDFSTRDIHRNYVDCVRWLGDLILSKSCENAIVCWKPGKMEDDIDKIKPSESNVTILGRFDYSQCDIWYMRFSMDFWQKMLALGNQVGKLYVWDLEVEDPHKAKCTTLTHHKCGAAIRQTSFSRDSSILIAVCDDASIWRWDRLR
Sequence (Q15022 whole entry partner, species assumed): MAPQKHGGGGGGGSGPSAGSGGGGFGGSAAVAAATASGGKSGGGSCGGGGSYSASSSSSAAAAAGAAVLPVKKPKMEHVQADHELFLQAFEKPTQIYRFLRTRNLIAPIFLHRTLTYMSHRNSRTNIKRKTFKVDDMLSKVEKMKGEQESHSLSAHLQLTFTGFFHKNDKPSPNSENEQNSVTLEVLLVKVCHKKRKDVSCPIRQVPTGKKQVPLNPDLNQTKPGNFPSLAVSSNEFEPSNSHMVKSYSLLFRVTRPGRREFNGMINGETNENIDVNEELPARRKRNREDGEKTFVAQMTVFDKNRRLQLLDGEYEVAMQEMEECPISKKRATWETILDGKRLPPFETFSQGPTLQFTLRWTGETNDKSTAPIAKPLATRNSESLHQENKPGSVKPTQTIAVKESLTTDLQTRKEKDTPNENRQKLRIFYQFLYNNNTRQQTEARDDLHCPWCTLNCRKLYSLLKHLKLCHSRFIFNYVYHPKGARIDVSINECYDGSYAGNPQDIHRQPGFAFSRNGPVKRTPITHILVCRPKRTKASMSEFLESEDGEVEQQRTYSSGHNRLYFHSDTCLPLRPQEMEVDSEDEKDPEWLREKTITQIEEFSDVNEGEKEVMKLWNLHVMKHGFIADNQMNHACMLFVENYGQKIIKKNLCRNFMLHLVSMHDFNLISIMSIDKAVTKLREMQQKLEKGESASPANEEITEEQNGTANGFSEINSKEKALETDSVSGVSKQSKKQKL
Give your result in % as a bare value.

Guide cases for inhibition at 0.005 µM, answers given:
CSc1cc(C)[nH]c(=O)c1CNC(=O)c1cc(-c2ccc3c(c2)OCO3)c2c(c1C)OC(C)(C1CCN(CC(F)(F)F)CC1)O2 (centres unmarked)
65.1
CCN(C)c1ccc(-c2cc(C(=O)NCc3c(SC)cc(C)[nH]c3=O)c(C)c3c2OC(C)(C2CCN(CC(F)F)CC2)O3)cn1 (single isomer, unassigned)
99.5
CCCCN(C)c1ncc(-c2cc(C(=O)NCc3c(SC)cc(C)[nH]c3=O)c(C)c3c2OC(C)(C2CCN(CC(F)(F)F)CC2)O3)cn1 (centres unmarked)
62.4
CSc1cc(C)[nH]c(=O)c1CNC(=O)c1cc(-c2ccc(N3C[C@@H](C)O[C@@H](C)C3)nc2)c2c(c1C)OC(C)(C1CCN(CCCC(F)(F)F)CC1)O2 (single isomer, unassigned)
96
CCN1CCN(c2ncc(-c3cc(C(=O)NCc4c(SC)cc(C)[nH]c4=O)c(C)c4c3OC(C)(C3CCN(CC(F)(F)F)CC3)O4)cn2)CC1 (centres unmarked) [Compound 75]
79

Give inhibition at 0.005 µM (EZH2 (Homo sapiens, UniProt Q15910)) of the following molecule: CSc1cc(C)[nH]c(=O)c1CNC(=O)c1cc(-c2ccc(N3C[C@@H](C)O[C@@H](C)C3)nc2)c2c(c1C)OC(C)(C1CCN(C(C)C)CC1)O2 (single isomer, unassigned)
99.3

Give inhibition at 0.005 µM (EZH2 (Homo sapiens, UniProt Q15910)) of the following molecule: COc1ccc(F)cc1-c1cc(C(=O)NCc2c(SC)cc(C)[nH]c2=O)c(C)c2c1OC(C)([C@H]1CC[C@H](N(C)C)CC1)O2 (relative stereo)
99.2

Give inhibition at 0.005 µM (EZH2 (Homo sapiens, UniProt Q15910)) of the following molecule: CSc1cc(C)[nH]c(=O)c1CNC(=O)c1cc(-c2ccc(N3CCSCC3)nc2)c2c(c1C)OC(C)([C@H]1CC[C@H](N(C)C)CC1)O2 (relative stereo)
99.3

* * *

tested on: Lovo cells; test: Cancer cell proliferation inhibition (Cell Counting Kit-8), colorectal cancer cell line; type: cell-based; conditions: Homo sapiens, LoVo, 264 h, 1000 nM, cultured seven to 11 days; read-out: % inhibition rate LoVo
measurement_kind: inhibition at 1 µM

Guide cases for inhibition at 1 µM, answers given:
CSc1cc(C)[nH]c(=O)c1CNC(=O)c1cc(-c2cnc(N3CCOCC3)nc2)c2c(c1C)OC(C)(C1CCN(CC(F)F)CC1)O2 (single isomer, unassigned) [Compound 71]
≥ 70%
CSc1cc(C)[nH]c(=O)c1CNC(=O)c1cc(-c2cnc(N3CCCC3)nc2)c2c(c1C)OC(C)([C@H]1CC[C@H](N(C)C)CC1)O2 (relative stereo) [Compound 5]
30 to 70%
CSc1cc(C)[nH]c(=O)c1CNC(=O)c1cc(-c2ccc(N3C[C@@H](C)O[C@@H](C)C3)nc2)c2c(c1C)OC(C)(C1CCN(CCc3ccccc3)CC1)O2 (single isomer, unassigned) [Compound 55]
≥ 70%
COCCN(C)[C@H]1CC[C@H](C2(C)Oc3c(-c4ccc(OC)nc4)cc(C(=O)NCc4c(SC)cc(C)[nH]c4=O)c(C)c3O2)CC1 (relative stereo) [Compound 28]
30 to 70%

Now consider the entry below.
Tell me the measured inhibition at 1 µM of CSc1cc(C)[nH]c(=O)c1CNC(=O)c1cc(-c2cnc(N3CCC4(CC3)COC4)nc2)c2c(c1C)OC(C)([C@H]1CC[C@H](N(C)C)CC1)O2 (relative stereo) [Compound 15] , please.
≥ 70%

* * *

Listing of recorded inhibition at 1 µM by entry.
test system: SW-13 cells; assay: Cancer cell proliferation inhibition (Cell Counting Kit-8), adrenal cancer cell line; assay type: cell-based; conditions: Homo sapiens, SW13, 264 h, 1000 nM, cultured seven to 11 days; read-out: % inhibition rate SW-13

Guide cases for inhibition at 1 µM, answers given:
CCCCN(C)c1ccc(-c2cc(C(=O)NCc3c(SC)cc(C)[nH]c3=O)c(C)c3c2OC(C)(C2CCN(CC(F)(F)F)CC2)O3)cn1 (stereo not drawn) [Compound 98]
≤ 30%
CSc1cc(C)[nH]c(=O)c1CNC(=O)c1cc(-c2cnc(N3CCOCC3)nc2)c2c(c1C)OC(C)(C1CCN(CC(F)F)CC1)O2 (single isomer, unassigned) [Compound 71]
30 to 70%
CSc1cc(C)[nH]c(=O)c1CNC(=O)c1cc(-c2ccc(N3CCCCC3)nc2)c2c(c1C)OC(C)(C1CCN(CC(F)(F)F)CC1)O2 (stereo not drawn) [Compound 91]
≤ 30%

Give inhibition at 1 µM (SW-13 cells) of the following compound: CSc1cc(C)[nH]c(=O)c1CNC(=O)c1cc(-c2ccsc2)c2c(c1C)OC(C)([C@H]1CC[C@H](N(C)C)CC1)O2 (relative stereo) [Compound 11]
30 to 70%

Give inhibition at 1 µM (SW-13 cells) of the following compound: CSc1cc(C)[nH]c(=O)c1CNC(=O)c1cc(-c2ccc(N3CCOCC3)nc2)c2c(c1C)OC(C)(C1CCN(CC(F)(F)F)CC1)O2 (single isomer, unassigned) [Compound 62]
30 to 70%

Give inhibition at 1 µM (SW-13 cells) of the following compound: CSc1cc(C)[nH]c(=O)c1CNC(=O)c1cc(-c2ccc(N3C[C@@H](C)O[C@@H](C)C3)nc2)c2c(c1C)OC(C)([C@H]1CC[C@H](N(C)C(C)C)CC1)O2 (stereo partly drawn) [Compound 110]
30 to 70%

Give inhibition at 1 µM (SW-13 cells) of the following compound: CCN(C)c1ncc(-c2cc(C(=O)NCc3c(SC)cc(C)[nH]c3=O)c(C)c3c2OC(C)(C2CCN(CC(F)(F)F)CC2)O3)cn1 (stereo not drawn) [Compound 78]
≤ 30%

Give inhibition at 1 µM (SW-13 cells) of the following compound: CSc1cc(C)[nH]c(=O)c1CNC(=O)c1cc(-c2ccc(N3C[C@@H](C)O[C@@H](C)C3)nc2)c2c(c1C)OC(C)([C@H]1CC[C@H](N(C)CC(F)(F)F)CC1)O2 (stereo partly drawn) [Compound 20]
≤ 30%

Give inhibition at 1 µM (SW-13 cells) of the following compound: CSc1cc(C)[nH]c(=O)c1CNC(=O)c1cc(-c2ccc(N3CCOCC3)nc2)c2c(c1C)OC(C)(C1CCN(CC(F)F)CC1)O2 (single isomer, unassigned) [Compound 64]
30 to 70%

Give inhibition at 1 µM (SW-13 cells) of the following compound: CSc1cc(C)[nH]c(=O)c1CNC(=O)c1cc(-c2cnc(N3CCCCC3)nc2)c2c(c1C)OC(C)(C1CCN(CC(F)(F)F)CC1)O2 (stereo not drawn) [Compound 39]
≤ 30%

Give inhibition at 1 µM (SW-13 cells) of the following compound: CSc1cc(C)[nH]c(=O)c1CNC(=O)c1cc(-c2cnc(N3CCCCC3)nc2)c2c(c1C)OC(C)([C@H]1CC[C@H](N(C)C)CC1)O2 (relative stereo) [Compound 4]
30 to 70%

Give inhibition at 1 µM (SW-13 cells) of the following compound: CSc1cc(C)[nH]c(=O)c1CNC(=O)c1cc(-c2ccc(N3C[C@@H](C)O[C@@H](C)C3)nc2)c2c(c1C)OC(C)(C1CCN(C(C)C)CC1)O2 (single isomer, unassigned) [Compound 51]
30 to 70%

Give inhibition at 1 µM (SW-13 cells) of the following compound: CSc1cc(C)[nH]c(=O)c1CNC(=O)c1cc(-c2ccc(N3C[C@@H](C)O[C@@H](C)C3)nc2)c2c(c1C)OC(C)([C@H]1CC[C@H](N(C)C[C@H](C)O)CC1)O2 (stereo partly drawn) [Compound 29]
30 to 70%

Give inhibition at 1 µM (SW-13 cells) of the following compound: COCCN(C)[C@H]1CC[C@H](C2(C)Oc3c(-c4ccc(N5C[C@@H](C)O[C@@H](C)C5)nc4)cc(C(=O)NCc4c(SC)cc(C)[nH]c4=O)c(C)c3O2)CC1 (stereo partly drawn) [Compound 24]
30 to 70%
